pIC50: −log10 of the molar value.
Reported pIC50 on UniProt P03956 for assorted compounds, compiled from publications.

Lab request: please report pIC50 under test system UniProt P03956 for Cc1cc(COc2ccc(C(=O)NC[C@@H](C(=O)NO)N3CCCCC3)cc2)c2ccccc2n1
5.00

Another compound to check: O=C(NO)[C@H]1CN(S(=O)(=O)c2cccc3cnccc23)CCN1S(=O)(=O)c1cc(F)c(Oc2ccc(Cl)cc2)c(F)c1
< 4.70

Also O=C(O)c1cccc(CN([C@]2(C(=O)O)C[C@H]2c2cccc(OCCN3CCOCC3)c2)S(=O)(=O)c2ccc(-c3ccc(Cl)cc3)cc2)c1 (relative stereo) ?
≤ 5.00

Can you handle O=C(O)[C@@H]1[C@@H](Cn2nnc3ccc(C(F)(F)F)cc3c2=O)CC[C@H]1C(=O)c1ccc(OCc2cccc(N3CCOC3=O)c2)cc1 (single isomer, unassigned) next?
5.68

Again, but for O=C(O)CN([C@]1(C(=O)O)C[C@H]1c1cccc(OCc2ccccc2)c1)S(=O)(=O)c1ccc(-c2ccc(Cl)cc2)cc1 (relative stereo)
≤ 5.00

Next compound up: O=C(NO)[C@H]1CN(S(=O)(=O)Cc2ccncc2)CCN1S(=O)(=O)c1cc(F)c(Oc2ccc(Cl)cc2)c(F)c1
4.70 to 6.00
